# Tested on: Escherichia coli
assay_readout: MIC

{"compound": "Cc1oc(-c2ccc(F)cc2F)nc1N1N=C(c2ccc(Cl)cc2Cl)CC1N1CCc2ccccc2C1 (stereo unspecified)", "MIC": "> 50 µg/mL"}
{"compound": "COc1ccc2c(c1)CN(C1CC(c3ccccc3F)=NN1c1nc(-c3ccccc3F)oc1C)CC2 (stereo unspecified)", "MIC": "50 µg/mL"}
{"compound": "Cc1oc(-c2ccccc2F)nc1N1N=C(c2ccccc2C(F)(F)F)CC1N1CCc2ccccc2C1 (stereo unspecified)", "MIC": "50 µg/mL"}
{"compound": "CO[C@@H]1[C@@H](OC(N)=O)[C@@H](O)[C@H](Oc2ccc3c(O)c(NC(=O)c4ccc(O)c(CC=C(C)C)c4)c(=O)oc3c2C)OC1(C)C [NOVOBIOCIN]", "MIC": "3.12 µg/mL"}

Okay, here is my list. What is MIC for each of these?
1. Cc1oc(-c2ccccc2C(F)(F)F)nc1N1N=C(c2ccc(-c3ccco3)cc2)CC1N1CCc2ccccc2C1 (stereo unspecified)
2. Cc1oc(-c2ccccc2C(F)(F)F)nc1N1N=C(c2ccc(Cl)cc2Cl)CC1N1CCc2ccccc2C1 (stereo unspecified)
3. C=Cc1ccccc1-c1nc(N2N=C(c3ccc(Cl)cc3Cl)CC2N2CCc3ccccc3C2)c(C)o1 (stereo unspecified)
4. COc1ccc2c(c1)CN(C1CC(c3ccccc3C(F)(F)F)=NN1c1nc(-c3ccccc3C(F)(F)F)oc1C)CC2 (stereo unspecified)

Result:
["50 µg/mL", "> 50 µg/mL", "> 50 µg/mL", "25 µg/mL"]

For every item in the list below, what is its measured MIC?
1. Cc1oc(-c2ccccc2F)nc1N1N=C(c2ccccc2)CC1N1CCc2ccccc2C1 (stereo unspecified)
2. COc1ccc2c(c1)CN(C1CC(c3ccccc3F)=NN1c1nc(-c3ccc(F)cc3F)oc1C)CC2 (stereo unspecified)
3. COc1ccc2c(c1)CN(C1CC(c3ccccc3)=NN1c1nc(-c3ccccc3C(F)(F)F)oc1C)CC2 (stereo unspecified)
4. C=Cc1ccccc1-c1nc(N2N=C(c3ccccc3C(F)(F)F)CC2N2CCc3ccccc3C2)c(C)o1 (stereo unspecified)
5. COc1ccc2c(c1)CN(C1CC(c3ccccc3C(F)(F)F)=NN1c1nc(-c3ccc(F)cc3F)oc1C)CC2 (stereo unspecified)

Result:
1. 6.25 µg/mL
2. 50 µg/mL
3. 50 µg/mL
4. > 50 µg/mL
5. 25 µg/mL

// for each compound below, give its MIC
1. NC[C@H]1O[C@H](O[C@H]2[C@H](O)[C@@H](O[C@H]3O[C@H](CO)[C@@H](O)[C@H](N)[C@H]3O)[C@H](N)C[C@@H]2N)[C@H](O)[C@@H](O)[C@@H]1O [KANAMYCIN]
2. COc1ccc2c(c1)CN(C1CC(c3ccccc3)=NN1c1nc(-c3ccc(F)cc3F)oc1C)CC2 (stereo unspecified)
3. Cc1oc(-c2ccc(F)cc2F)nc1N1N=C(c2ccccc2C(F)(F)F)CC1N1CCc2ccccc2C1 (stereo unspecified)

Result:
["3.12 µg/mL", "50 µg/mL", "25 µg/mL"]

Reference for the values: ChEMBL document CHEMBL1143389
